# experimentalSystem: T1, Goat anti-Human Kappa
# T1 construct: Positive control of the ELISA; also called biotinylated goat anti-human kappa light chain
# experimentalProtocol: ELISA, positive control; note: test concentration or dose not given here

[
  {
    "binder": "370_D11 (antibody, V domains shown) VH: EVQLLESGGGLVQPGGSLRLSCAASGFTFDSYSMNWVRQAPGKGLEWVSGINYNGGYTGYADSVKGRFTISRDNSKNTLYLQMNSLRAEDTAVYYCARSANWHDTALDYWGQGTLVTVSS VL: DIQMTQSPSSLSASVGDRVTITCRASQSIVSYLNWYQQKPGKAPKLLIYAATSRASGVPSRFSGSGSGTDFTLTISSLQPEDFATYYCQQSYDTPLTFGGGTKVEIK",
    "unitsText": "OD",
    "optical density": 3.38
  },
  {
    "binder": "369_H06 (antibody, V domains shown) VH: EVQLLESGGGLVQPGGSLRLSCAASGFTFSSYGMNWVRQAPGKGLEWVANINYNGGYKSYADSVKGRFTISRDNSKNTLYLQMNSLRAEDTAVYYCARSANWHDTALDYWGQGTLVTVSS VL: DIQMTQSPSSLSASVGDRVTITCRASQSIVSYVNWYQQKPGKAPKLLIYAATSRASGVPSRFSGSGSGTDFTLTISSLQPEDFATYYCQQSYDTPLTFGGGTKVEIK",
    "unitsText": "OD",
    "optical density": 3.5
  },
  {
    "binder": "369_F11 (antibody, V domains shown) VH: EVQLLESGGGLVQPGGSLRLSCAASGFTFDSYGMNWVRQAPGKGLEWVSNINYNSGYKSYADSVKGRFTISRDNSKNTLYLQMNSLRAEDTAVYYCARSANWHDTALDYWGQGTLVTVSS VL: DIQMTQSPSSLSASVGDRVTITCRASQSIISYLNWYQQKPGKAPKLLIYAATSRASGVPSRFSGSGSGTDFTLTISSLQPEDFATYYCQQSYDLPLTFGGGTKVEIK",
    "unitsText": "OD",
    "optical density": 3.66
  },
  {
    "binder": "370_A12 (antibody, V domains shown) VH: EVQLLESGGGLVQPGGSLRLSCAASGFTFSSYGMNWVRQAPGKGLEWVAGINYNGGYTSYADSVKGRFTISRDNSKNTLYLQMNSLRAEDTAVYYCARSANWHDTALDYWGQGTLVTVSS VL: DIQMTQSPSSLSASVGDRVTITCRASQSILTYLNWYQQKPGKAPKLLIYAATSLASGVPSRFSGSGSGTDFTLTISSLQPEDFATYYCQQSYDSPLTFGGGTKVEIK",
    "unitsText": "OD",
    "optical density": 3.72
  },
  {
    "binder": "370_C09 (antibody, V domains shown) VH: EVQLLESGGGLVQPGGSLRLSCAASGFTFDSYGMNWVRQAPGKGLEWVSGINYNGGYTSYADSVKGRFTISRDNSKNTLYLQMNSLRAEDTAVYYCARSANWHDTALDYWGQGTLVTVSS VL: DIQMTQSPSSLSASVGDRVTITCRASQSIISYLNWYQQKPGKAPKLVIYAATSLASGVPSRFSGSGSGTDFTLTISSLQPEDFATYYCQQSYSTPLTFGGGTKVEIK",
    "unitsText": "OD",
    "optical density": 3.48
  },
  {
    "binder": "372_C07 (antibody, V domains shown) VH: EVQLLESGGGLVQPGGSLRLSCAASGFTFSDYSMNWVRQAPGKGLEWVSNINYNSGYTSYADSVKGRFTISRDNSKNTLYLQMNSLRAEDTAVYYCARSANWHDTHLDYWGQGTLVTVSS VL: DIQMTQSPSSLSASVGDRVTITCRASQSILSYLNWYQQKPGKAPKLVIYAATSRHSGVPSRFSGSGSGTDFTLTISSLQPEDFATYYCQQSDNTPLTFGGGTKVEIK",
    "unitsText": "OD",
    "optical density": 3.46
  },
  {
    "binder": "369_G06 (antibody, V domains shown) VH: EVQLLESGGGLVQPGGSLRLSCAASGFTFDSYGMNWVRQAPGKGLEWVAGINYNGGYTSYADSVKGRFTISRDNSKNTLYLQMNSLRAEDTAVYYCARSANWHDTALDYWGQGTLVTVSS VL: DIQMTQSPSSLSASVGDRVTITCRASQSILSYVNWYQQKPGKAPKLVIYAATSRASGVPSRFSGSGSGTDFTLTISSLQPEDFATYYCQQSYENPLTFGGGTKVEIK",
    "unitsText": "OD",
    "optical density": 3.38
  },
  {
    "binder": "373_B06 (antibody, V domains shown) VH: EVQLLESGGGLVQPGGSLRLSCAASGFTFSDYSMNWVRQAPGKGLEWVAGINYNGGYTGYADSVKGRFTISRDNSKNTLYLQMNSLRAEDTAVYYCARSANWHDTALDYWGQGTLVTVSS VL: DIQMTQSPSSLSASVGDRVTITCRASQSILTYVNWYQQKPGKAPKLVIYAATSRHSGVPSRFSGSGSGTDFTLTISSLQPEDFATYYCQQSYESPLTFGGGTKVEIK",
    "unitsText": "OD",
    "optical density": 3.24
  },
  {
    "binder": "369_F10 (antibody, V domains shown) VH: EVQLLESGGGLVQPGGSLRLSCAASGFTFDSYGMNWVRQAPGKGLEWVSNINYNSGYKSYADSVKGRFTISRDNSKNTLYLQMNSLRAEDTAVYYCARSANWHDTALDYWGQGTLVTVSS VL: DIQMTQSPSSLSASVGDRVTITCRASQSIVTYLNWYQQKPGKAPKLLIYAVTSRASGVPSRFSGSGSGTDFTLTISSLQPEDFATYYCQQSYDLPLTFGGGTKVEIK",
    "unitsText": "OD",
    "optical density": 3.67
  },
  {
    "binder": "373_B10 (antibody, V domains shown) VH: EVQLLESGGGLVQPGGSLRLSCAASGFTFDSYGMNWVRQAPGKGLEWVSNINYNGGYTSYADSVKGRFTISRDNSKNTLYLQMNSLRAEDTAVYYCARSANWHDTALDYWGQGTLVTVSS VL: DIQMTQSPSSLSASVGDRVTITCRASQSILSYLNWYQQKPGKAPKLLIYAATSRASGVPSRFSGSGSGTDFTLTISSLQPEDFATYYCQQSYDLPLTFGGGTKVEIK",
    "unitsText": "OD",
    "optical density": 3.15
  }
]

The measured values listed here are drawn from patent US20210380703A1.
